# assay-protocol: Resistance ratio of IC50 for human EPG85-257P cells to IC50 for human EPG85-257RDB cells
# Format: functional
value-kind: Ratio IC50
Answers are plain numbers.

COc1ccccc1C(=O)O[C@H]1[C@@H](C)C[C@]2(OC(C)=O)C(=O)/C(C)=C/[C@@H]3[C@H](CC/C(C)=C\[C@@H]12)C3(C)C    0.2
CC(=O)O[C@]12C[C@H](C)[C@H](OC(=O)c3ccc(C(F)(F)F)cc3)[C@@H]1/C=C(/C)CC[C@H]1[C@@H](/C=C(\C)C2=O)C1(C)C    0.4
CC(=O)O[C@]12C[C@H](C)[C@H](OC(=O)/C=C/c3ccccc3)[C@@H]1/C=C(/C)CC[C@H]1[C@@H](/C=C(\C)C2=O)C1(C)C    0.2
CCOC(=O)O[C@H]1[C@@H](C)C[C@]2(OC(C)=O)C(=O)/C(C)=C/[C@@H]3[C@H](CC/C(C)=C\[C@@H]12)C3(C)C    0.4

Parameters: items (list). Returns: Ratio IC50 for each item.
1. C/C1=C/[C@H]2[C@@H](OC(=O)c3ccc4ccccc4c3)[C@@H](C)C[C@]2(O)C(=O)/C(C)=C/[C@@H]2[C@H](CC1)C2(C)C
2. COc1cccc(C(=O)O[C@H]2[C@@H](C)C[C@]3(OC(C)=O)C(=O)/C(C)=C/[C@@H]4[C@H](CC/C(C)=C\[C@@H]23)C4(C)C)c1
3. CC(=O)O[C@]12C[C@H](C)[C@H](OC(=O)Oc3ccccc3)[C@@H]1/C=C(/C)CC[C@H]1[C@@H](/C=C(\C)C2=O)C1(C)C

Output:
1. 0.3
2. 0.3
3. 0.4
